- System: 883617-216-R-J1-PDC complex spheroids, growth, % test/control
- assay-details: Anticancer human tumor 883617-216-R-J1-PDC patient-derived bladder carcinoma cell line growth inhibition [AhR]
- measurement-parameters: second compound 0.316 µM; first compound 1 µM; stronger effect = lower value
# note: boundary value 80% maps to rule not met; viability, T/C below it maps to rule met

QUERY: In the record for COc1cc(C2c3cc4c(cc3C(OC3OC5COC(C)OC5C(O)C3O)C3COC(=O)C23)OCO4)cc(OC)c1O (stereo not drawn) + CC(CO)NC(=O)c1cc(-c2ccc(Cl)cc2)nn(-c2cnn(C)c2)c1=O , is viability, T/C less than 80%?
RESULT: rule met

QUERY: Lab log: compare recorded viability, T/C with 80%; is it strictly lower for COc1cc(Nc2ncc3c(n2)-c2ccc(Cl)cc2C(c2c(F)cccc2OC)=NC3)ccc1C(=O)O + CC(CO)NC(=O)c1cc(-c2ccc(Cl)cc2)nn(-c2cnn(C)c2)c1=O ?
RESULT: rule not met

QUERY: Is it true that viability, T/C reported for O=C(C=Cc1cccc(S(=O)(=O)Nc2ccccc2)c1)NO + Cc1cncc(-c2nc(NCCc3c[nH]c4ccccc34)c3ncn(C(C)C)c3n2)c1 is less than 80%?
RESULT: rule met

QUERY: Is the reported viability, T/C for COc1cccc2c1C(=O)c1c(O)c3c(c(O)c1C2=O)CC(O)(C(=O)CO)CC3OC1CC(N)C(O)C(C)O1 (stereo not drawn) + CC(CO)NC(=O)c1cc(-c2ccc(Cl)cc2)nn(-c2cnn(C)c2)c1=O strictly below 80%?
RESULT: rule met

QUERY: Just wondering, is viability, T/C of COc1cc(Nc2ncc3c(n2)-c2ccc(Cl)cc2C(c2c(F)cccc2OC)=NC3)ccc1C(=O)O + Cc1ccccc1N=Nc1ccc(NC(=O)c2ccnn2C)c(C)c1 below 80%?
RESULT: rule met

QUERY: Lab note: viability, T/C threshold 80%. Does this compound come in strictly under it? CC1(C)CCC(CN2CCN(c3ccc(C(=O)NS(=O)(=O)c4ccc(NCC5CCOCC5)c([N+](=O)[O-])c4)c(Oc4cnc5[nH]ccc5c4)c3)CC2)=C(c2ccc(Cl)cc2)C1 + CC(CO)NC(=O)c1cc(-c2ccc(Cl)cc2)nn(-c2cnn(C)c2)c1=O
RESULT: rule not met

QUERY: Determine if NS(=O)(=O)OCC1CC(n2ccc3c(NC4CCc5ccccc54)ncnc32)CC1O (stereo not drawn) + Cc1cncc(-c2nc(NCCc3c[nH]c4ccccc34)c3ncn(C(C)C)c3n2)c1 shows viability, T/C strictly lower than 80%.
RESULT: rule not met

---

- System: 883617-216-R-J1-PDC complex spheroids, growth, % test/control
- assay-details: Anticancer human tumor 883617-216-R-J1-PDC cell line growth inhibition [AhR]; active = viability on the fitted dose curve at most 10% of control; inactive = the rest;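 also: exposure lasted 7 days after dosing on day 3 of spheroid growth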
- measurement-parameters: second compound 10 µM; first compound 1 µM
// allowed return values: active, inactive

QUERY: Dear colleague, could you share the recorded outcome for NS(=O)(=O)OCC1CC(n2ccc3c(NC4CCc5ccccc54)ncnc32)CC1O (stereo not given) + CC(CO)NC(=O)c1cc(-c2ccc(Cl)cc2)nn(-c2cnn(C)c2)c1=O when you have a moment?
RESULT: inactive

QUERY: Assay result, entry Nc1ccn(C2OC(CO)C(O)C2(F)F)c(=O)n1 (stereo not given) + Cc1cncc(-c2nc(NCCc3c[nH]c4ccccc34)c3ncn(C(C)C)c3n2)c1 — outcome?
RESULT: inactive

QUERY: Could you check what this test reported for CC1COCCN1c1cc(-c2ccnn2C)c2ccnc(-c3ccn[nH]3)c2n1 (stereo not given) + Cc1ccccc1N=Nc1ccc(NC(=O)c2ccnn2C)c(C)c1 ?
RESULT: inactive

QUERY: What did this assay record as the result for COc1cccc2c1C(=O)c1c(O)c3c(c(O)c1C2=O)CC(O)(C(=O)CO)CC3OC1CC(N)C(O)C(C)O1 (stereo not given) + CC(CO)NC(=O)c1cc(-c2ccc(Cl)cc2)nn(-c2cnn(C)c2)c1=O ?
RESULT: active

QUERY: Assay outcome for COc1ccc([C@@H](O)c2cc(-c3ncnc4cc(N5CCOCC5)ccc34)c(F)cc2Cl)nn1 + Cc1ccccc1N=Nc1ccc(NC(=O)c2ccnn2C)c(C)c1 : what was it?
RESULT: inactive

---

- Test system: 883617-216-R-J1-PDC complex spheroids, growth, % test/control
- assay-details: Anticancer human tumor 883617-216-R-J1-PDC cell line growth inhibition [AhR];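 also: exposure lasted 7 days after dosing on day 3 of spheroid growth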
- measurement-parameters: second compound 0.316 µM; first compound 0.0316 µM; stronger effect = lower value
readout: viability, T/C

QUERY: Report viability, T/C for Nc1ccccc1NC(=O)c1ccc(CNC(=O)OCc2cccnc2)cc1 + Cc1cncc(-c2nc(NCCc3c[nH]c4ccccc34)c3ncn(C(C)C)c3n2)c1 please.
RESULT: 88.1%

QUERY: Please give the measured viability, T/C for this compound: Nc1ncn(C2CC(O)C(CO)O2)c(=O)n1 (centres undefined) + Cc1ccccc1N=Nc1ccc(NC(=O)c2ccnn2C)c(C)c1
RESULT: 87.8%

QUERY: Form field: reported viability, T/C of CC1COCCN1c1cc(C2(S(C)(=N)=O)CC2)nc(-c2ccnc3[nH]ccc23)n1 (centres undefined) + Cc1cncc(-c2nc(NCCc3c[nH]c4ccccc34)c3ncn(C(C)C)c3n2)c1
RESULT: 92.4%

QUERY: Which viability, T/C value belongs to CC1COCCN1c1cc(C2(S(C)(=N)=O)CC2)nc(-c2ccnc3[nH]ccc23)n1 (centres undefined) + Cc1ccccc1N=Nc1ccc(NC(=O)c2ccnn2C)c(C)c1 ?
RESULT: 90.5%

---

For each record, write down the corresponding IC50.
- Test system: 883617-216-R-J1-PDC complex spheroids, growth, % test/control
- assay-details: Anticancer human tumor 883617-216-R-J1-PDC cell line growth inhibition [AhR];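 also: exposure lasted 7 days after dosing on day 3 of spheroid growth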
- measurement-parameters: curve of first compound; second compound 0.1 µM

QUERY: Need IC50, item CC[C@@]1(O)C(=O)OCc2c1cc1n(c2=O)Cc2cc3c(CN(C)C)c(O)ccc3nc2-1 + Cc1ccccc1N=Nc1ccc(NC(=O)c2ccnn2C)c(C)c1
RESULT: > 100 nM

QUERY: Fill in the blank: the reported IC50 of Cn1ncnc1C1c2n[nH]c(=O)c3cc(F)cc(c23)NC1c1ccc(F)cc1 (centres undefined) + Cc1ccccc1N=Nc1ccc(NC(=O)c2ccnn2C)c(C)c1 is ____.
RESULT: > 100 nM

QUERY: Looking for the measured IC50 of COc1cc(Nc2ncc3c(n2)-c2ccc(Cl)cc2C(c2c(F)cccc2OC)=NC3)ccc1C(=O)O + Cc1ccccc1N=Nc1ccc(NC(=O)c2ccnn2C)c(C)c1 , can you help?
RESULT: > 10000 nM

QUERY: Query (compound): CC1COCCN1c1cc(-c2ccnn2C)c2ccnc(-c3ccn[nH]3)c2n1 (centres undefined) + Cc1cncc(-c2nc(NCCc3c[nH]c4ccccc34)c3ncn(C(C)C)c3n2)c1 ; field requested: IC50
RESULT: > 1000 nM

QUERY: Reported IC50 for COc1cc(C2c3cc4c(cc3C(OC3OC5COC(C)OC5C(O)C3O)C3COC(=O)C23)OCO4)cc(OC)c1O (centres undefined) + CC(CO)NC(=O)c1cc(-c2ccc(Cl)cc2)nn(-c2cnn(C)c2)c1=O : what is it?
RESULT: > 10000 nM

QUERY: Recorded IC50 of CC1COCCN1c1cc(C2(S(C)(=N)=O)CC2)nc(-c2ccnc3[nH]ccc23)n1 (centres undefined) + CC(CO)NC(=O)c1cc(-c2ccc(Cl)cc2)nn(-c2cnn(C)c2)c1=O , please.
RESULT: > 10000 nM

QUERY: Return reported IC50; argument: Nc1ncn(C2CC(O)C(CO)S2)c(=O)n1 (centres undefined) + CC(CO)NC(=O)c1cc(-c2ccc(Cl)cc2)nn(-c2cnn(C)c2)c1=O
RESULT: > 300 nM

QUERY: Requested read-out: IC50. Entry: O=C(C=Cn1cnc(-c2cc(C(F)(F)F)cc(C(F)(F)F)c2)n1)NNc1cnccn1 + Cc1ccccc1N=Nc1ccc(NC(=O)c2ccnn2C)c(C)c1
RESULT: 443 nM

QUERY: Fill in: IC50 of CC(C)CC(NC(=O)C(Cc1ccccc1)NC(=O)c1cnccn1)B(O)O (centres undefined) + Cc1cncc(-c2nc(NCCc3c[nH]c4ccccc34)c3ncn(C(C)C)c3n2)c1 is ___
RESULT: 9.01 nM

QUERY: Fill in the blank: the reported IC50 of CCN(c1cc(-c2ccc(CN3CCOCC3)cc2)cc(C(=O)NCc2c(C)cc(C)[nH]c2=O)c1C)C1CCOCC1 + CC(CO)NC(=O)c1cc(-c2ccc(Cl)cc2)nn(-c2cnn(C)c2)c1=O is ____.
RESULT: > 3000 nM

QUERY: Recorded IC50 of COc1cc(C2c3cc4c(cc3C(OC3OC5COC(C)OC5C(O)C3O)C3COC(=O)C23)OCO4)cc(OC)c1O (centres undefined) + Cc1cncc(-c2nc(NCCc3c[nH]c4ccccc34)c3ncn(C(C)C)c3n2)c1 , please.
RESULT: > 10000 nM

QUERY: Name the recorded IC50 for O=C(C=Cc1cccc(S(=O)(=O)Nc2ccccc2)c1)NO + Cc1cncc(-c2nc(NCCc3c[nH]c4ccccc34)c3ncn(C(C)C)c3n2)c1 .
RESULT: 1740 nM

QUERY: Would you kindly share the measured IC50 for CC1COCCN1c1cc(-c2ccnn2C)c2ccnc(-c3ccn[nH]3)c2n1 (centres undefined) + Cc1ccccc1N=Nc1ccc(NC(=O)c2ccnn2C)c(C)c1 ?
RESULT: 906 nM

QUERY: Field request: IC50 | item: CC1COCCN1c1cc(-c2ccnn2C)c2ccnc(-c3ccn[nH]3)c2n1 (centres undefined) + CC(CO)NC(=O)c1cc(-c2ccc(Cl)cc2)nn(-c2cnn(C)c2)c1=O
RESULT: > 1000 nM

QUERY: Reported IC50, compound COc1cccc2c1C(=O)c1c(O)c3c(c(O)c1C2=O)CC(O)(C(=O)CO)CC3OC1CC(N)C(O)C(C)O1 (centres undefined) + Cc1cncc(-c2nc(NCCc3c[nH]c4ccccc34)c3ncn(C(C)C)c3n2)c1 : ____
RESULT: 393 nM

QUERY: What IC50 value was documented for this compound, Cn1ncnc1C1c2n[nH]c(=O)c3cc(F)cc(c23)NC1c1ccc(F)cc1 (centres undefined) + CC(CO)NC(=O)c1cc(-c2ccc(Cl)cc2)nn(-c2cnn(C)c2)c1=O ?
RESULT: > 100 nM

QUERY: Would you mind telling me what IC50 value was observed for Nc1ncn(C2CC(O)C(CO)O2)c(=O)n1 (centres undefined) + CC(CO)NC(=O)c1cc(-c2ccc(Cl)cc2)nn(-c2cnn(C)c2)c1=O ?
RESULT: > 1000 nM

QUERY: Sample CC(C)c1c(-c2ccccc2)nc2c(C#N)c[nH]n2c1=O + Cc1cncc(-c2nc(NCCc3c[nH]c4ccccc34)c3ncn(C(C)C)c3n2)c1 — what was its IC50?
RESULT: > 10000 nM

QUERY: Given COc1ccc([C@@H](O)c2cc(-c3ncnc4cc(N5CCOCC5)ccc34)c(F)cc2Cl)nn1 + Cc1ccccc1N=Nc1ccc(NC(=O)c2ccnn2C)c(C)c1 , state its recorded IC50.
RESULT: 3450 nM
